Measured pIC50, listed per entry.
# targetSystem: Recombinant STAT6 protein (STAT6(W123-T658)) (Homo sapiens, UniProt P42226)
# Construct: STAT6(W123-T658)
# Sequence (P42226 123-658): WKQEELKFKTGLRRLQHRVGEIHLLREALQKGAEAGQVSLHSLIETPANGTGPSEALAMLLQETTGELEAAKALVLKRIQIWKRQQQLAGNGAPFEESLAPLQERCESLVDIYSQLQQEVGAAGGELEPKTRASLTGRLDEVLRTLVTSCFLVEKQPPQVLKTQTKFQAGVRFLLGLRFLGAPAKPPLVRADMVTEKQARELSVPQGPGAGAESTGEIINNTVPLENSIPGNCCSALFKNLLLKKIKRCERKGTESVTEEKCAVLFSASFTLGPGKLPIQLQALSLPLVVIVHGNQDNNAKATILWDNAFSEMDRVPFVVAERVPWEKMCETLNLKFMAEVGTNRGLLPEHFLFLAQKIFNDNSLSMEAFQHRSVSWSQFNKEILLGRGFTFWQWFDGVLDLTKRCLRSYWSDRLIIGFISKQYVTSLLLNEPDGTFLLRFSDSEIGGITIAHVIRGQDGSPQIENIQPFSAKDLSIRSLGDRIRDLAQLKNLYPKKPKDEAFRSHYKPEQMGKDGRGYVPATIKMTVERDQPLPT
# methodDescription: STAT6 Fluorescence Polarization (FP) Assay
# cond: STAT6(W123-T658) 250 nM, probe 5-FAM-ApYKPFQDLI-NH2 2 nM, 45-minute incubation
pIC50: −log10 of the molar value.

Study these solved cases before continuing.
O=C(N[C@H]1C[C@@H]2C[C@@H]2C[C@H]2CC[C@@H](C(=O)N3CC(N4CCS(=O)(=O)CC4)C3)N2C1=O)c1cc2cc(C(F)P(=O)(O)O)ccc2s1 (some centres unmarked) [Example 301] : 4.52 to 5.52
O=C(N[C@H]1C[C@@H]2C[C@@H]2C[C@H]2CC[C@@H](C(=O)N3CC(c4cccnc4)C3)N2C1=O)c1cc2cc(C(F)(F)P(=O)(O)O)ccc2s1 [Compound 100] : 4.52 to 5.52
NC(=O)N1C[C@H](NC(=O)[C@@H]2CC[C@@H]3C[C@H]4C[C@H]4C[C@H](NC(=O)c4cc5cc(C(F)P(=O)(O)O)ccc5s4)C(=O)N32)[C@@H](F)C1 (some centres unmarked) [Example 330] : 5.52 to 6.52
CC(=O)N1CC[C@@H](NC(=O)[C@@H]2CC[C@@H]3C[C@H]4C[C@H]4C[C@H](NC(=O)c4cc5cc(C(F)(F)P(=O)(O)O)ccc5s4)C(=O)N32)C1 [Compound 116] : 5.52 to 6.52

Now turn to the next molecule.
Exam item: Give me measured pIC50, please, for this molecule: COc1ccc(C2CCN(C(=O)[C@@H]3CC[C@@H]4C[C@H]5C[C@H]5C[C@H](NC(=O)c5cc6cc(C(F)(F)P(=O)(O)O)ccc6s5)C(=O)N43)C2)cn1 (some centres unmarked) [Compound 88]
Marked response: 5.52 to 6.52

---

# targetSystem: Recombinant STAT6 protein (STAT6(W123-T658)) (Homo sapiens, UniProt P42226)
# Construct: STAT6(W123-T658)
# methodDescription: STAT6 Fluorescence Polarization (FP) Assay
# cond: STAT6(W123-T658) 250 nM, probe 5-FAM-ApYKPFQDLI-NH2 2 nM, 45-minute incubation
pIC50: −log10 of the molar value.
reportedProperty: pIC50

Study these solved cases before continuing.
O=C(N[C@H]1C[C@@H]2C[C@@H]2C[C@H]2CC[C@@H](C(=O)N[C@H]3CN(c4ccccn4)C[C@@H]3F)N2C1=O)c1cc2cc(CP(=O)(O)O)ccc2s1 : 4.52 to 5.52
O=C(N[C@H]1C[C@@H]2C[C@@H]2C[C@H]2CC[C@@H](C(=O)N3CC(Oc4ncccn4)C3)N2C1=O)c1cc2cc(CP(=O)(O)O)ccc2s1 : < 4.52
Cc1ccncc1C1CN(C(=O)[C@@H]2CC[C@@H]3C[C@@H]4C[C@@H]4C[C@H](NC(=O)c4cc5cc(C(F)P(=O)(O)O)ccc5s4)C(=O)N32)C1 (stereo partly drawn) : 4.52 to 5.52
O=C(N[C@H]1C[C@@H]2C[C@@H]2C[C@H]2CC[C@@H](C(=O)N3CC(C(=O)N4CCOCC4)C3)N2C1=O)c1cc2cc(C(F)P(=O)(O)O)ccc2s1 (stereo partly drawn) : 4.52 to 5.52
O=C(N[C@H]1C[C@@H]2C[C@@H]2C[C@H]2CC[C@@H](C(=O)N3CC(Cc4cc(F)ccc4F)C3)N2C1=O)c1cc2cc(CP(=O)(O)O)ccc2s1 : 4.52 to 5.52
Cc1cnc(C2CN(C(=O)[C@@H]3CC[C@@H]4C[C@H]5C[C@H]5C[C@H](NC(=O)c5cc6cc(C(F)P(=O)(O)O)ccc6s5)C(=O)N43)C2)o1 (stereo partly drawn) : 4.52 to 5.52
COC1(c2nccn2C)CN(C(=O)[C@@H]2CC[C@@H]3C[C@@]4(C)C[C@H]4C[C@H](NC(=O)c4cc5cc(C(F)(F)P(=O)(O)O)ccc5s4)C(=O)N32)C1 : 4.52 to 5.52
O=C(N[C@H]1C[C@H]2C[C@H]2C[C@H]2CC[C@@H](C(=O)N3CC(CC(F)F)(c4ccccc4)C3)N2C1=O)c1cc2cc(C(F)(F)P(=O)(O)O)ccc2s1 : 4.52 to 5.52
C[C@@]12C[C@H](NC(=O)c3cc4cc(C(F)(F)P(=O)(O)O)ccc4s3)C(=O)N3[C@H](CC[C@H]3C(=O)N3CC(c4cccnc4)C3)[C@@H]1C2 : 4.52 to 5.52
O=C(N[C@H]1C[C@@H]2C[C@@H]2C[C@H]2CC[C@@H](C(=O)N3CC(c4ccccn4)C3)N2C1=O)c1cc2cc(C(F)(F)P(=O)(O)O)ccc2s1 : 4.52 to 5.52

Exam item: Give me measured pIC50, please, for this molecule: O=C(N[C@H]1C[C@@H]2C[C@@H]2C[C@H]2CC[C@@H](C(=O)N3CC(c4cn[nH]c4)C3)N2C1=O)c1cc2cc(C(F)(F)P(=O)(O)O)ccc2s1
Marked response: 4.52 to 5.52

Exam item: Give me measured pIC50, please, for this molecule: O=C(N[C@H]1C[C@H]2C[C@H]2C[C@H]2CC[C@@H](C(=O)N3CC(c4ncccn4)C3)N2C1=O)c1cc2cc(C(F)P(=O)(O)O)ccc2s1 (stereo partly drawn)
Marked response: 4.52 to 5.52

Exam item: Give me measured pIC50, please, for this molecule: O=C(N[C@H]1C[C@@H]2C[C@@H]2C[C@H]2CC[C@@H](C(=O)N3CCN(c4ccccn4)CC3)N2C1=O)c1cc2cc(C(F)(F)P(=O)(O)O)ccc2s1
Marked response: 4.52 to 5.52
